// reported protein stability index per item
B1: FUT8 (parent)
chain: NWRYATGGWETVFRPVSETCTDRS

variants of: B1; assay: protein stability index of a GFP-peptide fusion (GPS, HEK-293T) (PSI 1-6); higher = more stable; conditions: c terminus: a fixed tail appended;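 also: lentivirally expressed fusions sorted by FACS into six bins by GFP to DsRed ratio, PSI derived from sequencing read proportions per bin multiplied by bin number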
Please state the value as a number alone, without comment.

protein stability index measured on T6N = 1.48

protein stability index measured on S17D = 2.33

protein stability index measured on Y4I = 2.63
